- target-system: Aurora kinase B (Homo sapiens)
- Sequence (Q96GD4 whole entry): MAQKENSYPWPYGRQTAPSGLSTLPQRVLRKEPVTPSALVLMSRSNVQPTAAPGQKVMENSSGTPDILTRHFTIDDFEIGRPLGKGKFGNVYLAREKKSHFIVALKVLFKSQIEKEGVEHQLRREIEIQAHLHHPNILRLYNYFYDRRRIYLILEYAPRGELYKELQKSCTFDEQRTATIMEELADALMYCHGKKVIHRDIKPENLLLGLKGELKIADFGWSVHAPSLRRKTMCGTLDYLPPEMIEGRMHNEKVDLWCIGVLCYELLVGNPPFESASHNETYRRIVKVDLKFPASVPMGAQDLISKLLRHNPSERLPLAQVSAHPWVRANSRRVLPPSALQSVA
- assay-method-text: Inhibition of Aurora B phosphorylation at Thr232 residue in human HeLa cells after 12 hrs by ELISA
- Format: cell-based
measured-quantity: pIC50
Worth noting: pIC50 values are minus log10 of concentrations stated in mol/L.

Recorded pIC50 of "CC1(C)CC(NC(=O)c2ccc(Nc3ncc(F)c(Nc4ccc(C(=O)Nc5ccccc5Cl)cc4)n3)cc2)CC(C)(C)N1[O]" , please. 6.27

###

- target-system: Aurora kinase A (Homo sapiens)
- Sequence (O14965 whole entry): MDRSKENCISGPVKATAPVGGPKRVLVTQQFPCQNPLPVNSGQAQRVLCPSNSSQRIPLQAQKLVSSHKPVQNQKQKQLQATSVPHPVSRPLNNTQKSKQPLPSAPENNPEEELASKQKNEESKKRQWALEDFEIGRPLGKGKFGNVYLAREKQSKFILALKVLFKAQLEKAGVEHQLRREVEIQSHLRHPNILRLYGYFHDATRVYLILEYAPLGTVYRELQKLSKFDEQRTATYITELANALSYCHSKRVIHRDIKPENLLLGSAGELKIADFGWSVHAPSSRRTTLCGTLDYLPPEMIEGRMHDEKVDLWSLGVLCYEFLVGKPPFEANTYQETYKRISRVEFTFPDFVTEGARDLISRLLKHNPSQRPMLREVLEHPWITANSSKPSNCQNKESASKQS
- assay-method-text: Inhibition of Aurora A (unknown origin) using kemptide acetate salt as substrate after 30 mins by kinase-Glo luminescence method
measured-quantity: pIC50
Worth noting: pIC50 values are minus log10 of concentrations stated in mol/L.

[[record]]
given_smiles = "CC1(C)CC(NC(=O)c2ccc(Nc3ncc(Cl)c(Nc4ccccc4Cl)n3)cc2)CC(C)(C)N1[O]"
measured_quantity = "pIC50"
measured_value = 9.72


Recorded pIC50 of "CC1(C)CC(NC(=O)c2ccc(Nc3ncc([N+](=O)[O-])c(Nc4cccc(O)c4)n3)cc2)CC(C)(C)N1[O]" , please. 9.85

Recorded pIC50 of "CC1(C)CC(NC(=O)c2ccc(Nc3ncc([N+](=O)[O-])c(Nc4ccccc4Cl)n3)cc2)CC(C)(C)N1[O]" , please. 8.73
